Field: pIC50. Provide a value for each of the molecules that follow.
# targetUnderTest: C-X-C chemokine receptor type 6 (Homo sapiens)
# protocol: potency against CXCR6 with APJ panel – cell-based, beta-arrestin, DiscoveRx, uHTS hits, dose response (AID 624129)
# conditionNotes: CXCR6 beta-arrestin (DiscoveRx) antagonist cell assay, CXCR6, run 2, dose range 2
By convention, pIC50 is the negative base-10 log of a molar concentration.

Task item: Form: Entry = "CC1(C)Cc2ccccc2C(NNC(=O)c2ccccn2)=N1" | System = C-X-C chemokine receptor type 6 (Homo sapiens) | pIC50 = ____
Reply: 4.70

Task item: Entry "C=CCN(CC=C)C(=S)NC(=O)c1ccc(C)c(Br)c1" , system C-X-C chemokine receptor type 6 (Homo sapiens): what pIC50 was measured?
Reply: 4.87

Task item: C-X-C chemokine receptor type 6 (Homo sapiens) / pIC50 / "CCOC(=O)[C@]12Cc3cc(Cl)ccc3[C@H]1N(C1CCCCC1)C(=O)c1cc(OC)ccc12" : value?
Reply: 4.71

Task item: What pIC50 appears in the records for this molecule with C-X-C chemokine receptor type 6 (Homo sapiens)? "CCn1nccc1C(=O)Nc1nc2ccccc2n1CCN1CCCCC1"
Reply: 4.62

Task item: Enter reported pIC50 observed with C-X-C chemokine receptor type 6 (Homo sapiens) for "CC1(C)CC(=O)C(C=Nc2ccc(C(=O)c3ccccc3)cc2N=CC2=C(O)CC(C)(C)CC2=O)=C(O)C1"
Reply: 5.57

----------
# targetUnderTest: C-X-C chemokine receptor type 6 (Homo sapiens) (UniProt O00574)
# Sequence (O00574 whole entry, looked up): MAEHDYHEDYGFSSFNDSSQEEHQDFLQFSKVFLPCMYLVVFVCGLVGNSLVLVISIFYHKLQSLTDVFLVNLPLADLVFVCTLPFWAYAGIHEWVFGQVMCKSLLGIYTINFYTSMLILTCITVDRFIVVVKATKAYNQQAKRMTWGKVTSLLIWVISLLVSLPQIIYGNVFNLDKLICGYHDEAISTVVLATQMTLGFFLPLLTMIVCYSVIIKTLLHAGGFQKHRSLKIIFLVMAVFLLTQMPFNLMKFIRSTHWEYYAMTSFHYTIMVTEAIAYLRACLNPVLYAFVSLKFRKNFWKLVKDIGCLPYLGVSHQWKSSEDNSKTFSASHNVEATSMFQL
# protocol: potency against CXCR6 with APJ panel – cell-based, beta-arrestin, DiscoveRx, uHTS hits, dose response (AID 624129)
# conditionNotes: CXCR6 beta-arrestin (DiscoveRx) antagonist cell assay, CXCR6, run 1, dose range 2
measure: IC50 (µM)
Could you give me the number in µM? Just the number is fine.

Task item: So what's the measured IC50 for this one? "C/C(=N/NC(=O)c1ccc(C(C)(C)C)cc1)c1ccccn1"
Reply: 0.9

Task item: I am curious: what IC50 value has been reported for "O=C(NNC(=O)c1cc(-c2ccccc2)nn1-c1ccccc1)c1ccccc1" ?
Reply: 10.4

Task item: What does the record list as IC50 for "C/C(=N\Nc1nc2ccccc2[nH]1)c1ccccn1" ?
Reply: 3.33

Task item: Using the record for "CCCSc1cc(NCCOC(=O)CCC)c([N+](=O)[O-])c2nonc12" , report its IC50.
Reply: 17.6

Task item: Given the compound "COc1cc(/C=C/C(O)=C/C(=O)/C=C/c2ccc(O)cc2)ccc1O" , what is its reported IC50?
Reply: 40.1

Task item: Bench note: what IC50 did "Cc1cccc(C(=O)Nc2ccc(C(=O)/C=C/c3cccnc3)cc2)c1" show?
Reply: 6.87

Task item: Would you kindly share the measured IC50 for "CC1(C)Cc2ccccc2C(NNC(=O)c2ccccn2)=N1" ?
Reply: 18

Task item: Quick one: IC50 for "Cc1cccc(NC(=S)NNc2ncc(C(F)(F)F)cc2Cl)c1" ?
Reply: 26.4

Task item: Recorded IC50 for "CCOC(=O)c1ccc(NC(=O)c2nc(S(=O)(=O)Cc3ccccc3)ncc2Cl)cc1" , please?
Reply: 12.3

Task item: If you can, please state the reported IC50 value of "COc1cc(N2C(=O)C=CC2=O)ccc1N1C(=O)C=CC1=O" .
Reply: 12.7

Task item: Using the record for "O=c1cc(CSc2ccc(Cl)cc2)nc(-c2ccccn2)[nH]1" , report its IC50.
Reply: 3.45

Task item: Can you look up the measured IC50 of "Cc1c(N=Nc2c(O)[nH]c(=S)[nH]c2=O)c(=O)n(-c2ccccc2)n1C" for me?
Reply: 16.4

Task item: Requested field: IC50. Item: "NC(=S)NN=C1c2cc(Cl)ccc2-c2c1cc(Cl)cc2[N+](=O)[O-]"
Reply: 11.7

Task item: Report IC50 for "COCc1cc(=O)[nH]c(Nc2nc3ccc(C)cc3o2)n1" please.
Reply: 3.3

Task item: # input compound: COc1ccc(CN2C(=O)C(Cc3ccccc3)Nc3ncnc(N4CCN(c5ccccc5)CC4)c32)cc1 (centres undefined) ; wanted: its IC50
Reply: 3.14

Task item: Endpoint output: IC50 of "COc1ccc(/C=C(/C(=O)c2cccs2)N2C=CC=CC2=C(C#N)C#N)cc1" . Value?
Reply: 20.3

Task item: Look up IC50: "Cc1cc(O)c(-c2cc(O)c(C)cc2O)cc1O"
Reply: 13.6

Task item: Find the recorded IC50 belonging to "CS(=O)(=O)c1ccc(C(=O)OCC(=O)N2CCN(CCC3CCCCC3)CC2)cc1[N+](=O)[O-]" and report it.
Reply: 10.6

Task item: Consider the compound shown here: "C/C(=N\NC(=O)c1ccc(F)cc1)c1ccccn1" What is its recorded IC50?
Reply: 0.861

Task item: Item under review: "COc1ccc(C(=O)NC(=S)Nc2ccc([N+](=O)[O-])cc2C)cc1OC" . Reported IC50?
Reply: 18.3

Task item: Bench note: what IC50 did "C[n+]1ccc(/C=N/Nc2nc(Cl)c(C#N)c(Cl)c2Cl)cc1" show?
Reply: 23.6

Task item: I'd like to know its IC50. The compound in question is "CCOC(=O)CSc1cccc2cccnc12"
Reply: 3.95

Task item: I'd like to know its IC50. The compound in question is "COC(=O)c1ccc(C)c(-n2c(=O)n(Cc3ccccc3)c(=O)c3[nH]cnc32)c1"
Reply: 11.6

Task item: Request the reported IC50 associated with "CCC(=O)OCCNc1cc(Sc2nc3ccccc3[nH]2)c2nonc2c1[N+](=O)[O-]"
Reply: 5.85

Task item: # input compound: "O=[N+]([O-])c1cc2no[n+]([O-])c2cc1N1CCCCC1" ; wanted: its IC50
Reply: 12.2

Task item: Using the record for "N=C1S/C(=C\c2ccco2)C(=O)N1c1nccs1" , report its IC50.
Reply: 6.4

Task item: Name the reported IC50 value associated with the compound COc1ccc(C2CC(c3c(O)n(CCc4ccccc4)c(=O)[nH]c3=O)=NN2)cc1OC (centres undefined)
Reply: 6.37

Task item: Look up IC50: "CCCC(=O)OCCNc1cc(Sc2nccn2C)c2nonc2c1[N+](=O)[O-]"
Reply: 5.61

Task item: Reported IC50, compound "CCOc1cc(/C=C2\N=C(SC)SC2=O)cc([N+](=O)[O-])c1OC(C)=O" : ____
Reply: 27.7

Task item: For "O=C(NNC(=O)C12CC3CC(CC(C3)C1)C2)c1ccccn1" , what is its reported IC50?
Reply: 5.57

Task item: Requested field: IC50. Item: "Cc1cccnc1Nc1nc(-c2ccccn2)cs1"
Reply: 0.837

Task item: What value of IC50 has been recorded for this entry: CCCNC(=O)c1nnsc1S(=O)c1ccc(Cl)cc1 (centres undefined)
Reply: 11.8

Task item: Record request: IC50 value, item "Cn1cnc([N+](=O)[O-])c1S(=O)(=O)c1cccc(Cl)c1"
Reply: 12.4

Task item: Any idea what its IC50 is? The compound is "O=[N+]([O-])c1ccc(N/N=C/c2sc(N3CCOCC3)nc2-c2ccccc2)c(S(=O)(=O)Nc2ccc(Cl)cc2)c1"
Reply: 72.8

Task item: // IC50 lookup, key: "O=C1C=CC2(C=C1)O[C@H](Cc1ccccc1)[C@@H](Cc1ccccc1)O2"
Reply: 6.66

Task item: Recorded IC50 for "NC(=O)c1ccccc1NCC(=O)c1ccc(Cl)cc1" , please?
Reply: 5.58

Task item: Request the reported IC50 associated with "O=[N+]([O-])c1ccc(Sc2cccc3cccnc23)c([N+](=O)[O-])c1"
Reply: 3.2

Task item: Look at this compound and give its reported IC50. CC(=O)N1N=C(c2cccs2)CC1c1cccc([N+](=O)[O-])c1 (centres undefined)
Reply: 20.8

Task item: Need IC50, item "Cc1ccc(O)c(C(=O)CC(=O)c2ccc(Cl)cc2)c1"
Reply: 10.8

Task item: Which value of IC50 has been reported for "CCOc1ccc(N(CC(=O)N/N=C/c2ccccn2)S(=O)(=O)c2ccc(Cl)cc2)cc1" in the records?
Reply: 10.4

Task item: Request the reported IC50 associated with "O=C(Nc1nccs1)c1sc2cc(Cl)ccc2c1Cl"
Reply: 7.2

Task item: Item under review: "CCCCC(=O)NC(=S)NNC(=O)c1ccc(OC)cc1" . Reported IC50?
Reply: 10.2

Task item: Please give the measured IC50 for this compound: "COC(=O)C1=C(C(=O)OC)SC2(S1)C(C(=O)OC)=C(C(=O)OC)Sc1c2ssc1=O"
Reply: 20.3

Task item: Need IC50, item "COC(=O)c1ccccc1-c1c2ccc(=N)cc-2oc2cc(N)ccc12"
Reply: 17.1

----------
# targetUnderTest: C-X-C chemokine receptor type 6 (Homo sapiens) (UniProt O00574)
# protocol: potency against CXCR6 with APJ panel – cell-based, beta-arrestin, DiscoveRx, uHTS hits, dose response (AID 624129)
# conditionNotes: CXCR6 beta-arrestin (DiscoveRx) antagonist cell assay, CXCR6, run 2, dose range 1
Kindly supply the reported pIC50 values for the records listed here.
# pIC50 = -log10(concentration in molar units)

Task item: Look at this compound and give its reported pIC50. CC(=O)OC1C2(CC3N4C(=O)C5(CO)SSC4(CC31O)C(=O)N5C)OC(C)C(C)(C)C2=O (stereo not given)
Reply: 6.03

Task item: Can you look up the measured pIC50 of "CNc1ccc2oc(C[C@H]3O[C@@]4(CC[C@H]3C)O[C@H]([C@H](C)C(=O)c3ccc[nH]3)[C@H](C)C[C@H]4C)nc2c1C(=O)O" for me?
Reply: 5.15

Task item: So what does the record say about pIC50 for "O=C1C=CC2(C=C1)O[C@H](Cc1ccccc1)[C@@H](Cc1ccccc1)O2" ?
Reply: 5.13

Task item: Look at this compound and give its reported pIC50. "CC(=O)OCCCNc1cc(Sc2ccc(Cl)cc2)c2nonc2c1[N+](=O)[O-]"
Reply: 5.54

Task item: Quick check: pIC50 of "Cc1cccc(C(=O)Nc2ccc(C(=O)/C=C/c3cccnc3)cc2)c1" ?
Reply: 5.15

Task item: Need pIC50, item "Cc1cccc(CSc2cccc3cccnc23)c1"
Reply: 5.36

Task item: Reported pIC50 for "O=[N+]([O-])c1c(NCCCO)cc(Sc2nc3ccccc3s2)c2nonc12" : what is it?
Reply: 4.87
